measurement-protocol: Plasma pharmacokinetics after oral administration of the combination (noncompartmental)
run-parameters: plasma, cycle 1 Day 1; MK-8353 150 mg + selumetinib 75 mg oral BID; geometric mean (% geometric CV)
value-type: Cmax (nM)
Give just the numeric value; nM need not be written.

Qu. Please look at this compound and report its Cmax: O=C(NOCCO)c1cc2[nH]cnc2c(F)c1Nc1ccc(Br)cc1Cl
Ans. 158

----------
measurement-protocol: Plasma pharmacokinetics after oral administration of the combination (noncompartmental)
run-parameters: plasma, cycle 1 Day 4; MK-8353 150 mg + selumetinib 75 mg oral BID; geometric mean (% geometric CV)
value-type: Cmax (nM)
Give just the numeric value; nM need not be written.

Qu. Please look at this compound and report its Cmax: O=C(NOCCO)c1cc2[nH]cnc2c(F)c1Nc1ccc(Br)cc1Cl
Ans. 97.7

----------
measurement-protocol: clinical
run-parameters: human, in vivo, Observed median time of maximum plasma concentration, range over dose levels
value-type: tmax

Qu. Please look at this compound and report its tmax: Cn1cnc2c(F)c(Nc3ccc(Br)cc3Cl)c(C(=O)NOCCO)cc21
Ans. 1 to 1.96 h

----------
measurement-protocol: Plasma pharmacokinetics after oral administration of the combination (noncompartmental)
run-parameters: plasma, cycle 1 Day 4; MK-8353 50 mg + selumetinib 25 mg oral BID; geometric mean (% geometric CV)
value-type: Cmax
Don't forget the unit after the number, please.

Qu. Please look at this compound and report its Cmax: O=C(NOCCO)c1cc2[nH]cnc2c(F)c1Nc1ccc(Br)cc1Cl
Ans. 56.3 nM

----------
measurement-protocol: Plasma pharmacokinetics after oral administration of the combination (noncompartmental)
run-parameters: plasma, cycle 1 Day 4; MK-8353 100 mg + selumetinib 50 mg oral BID; geometric mean (% geometric CV)
value-type: Cmax (nM)
Give just the numeric value; nM need not be written.

Qu. Please look at this compound and report its Cmax: O=C(NOCCO)c1cc2[nH]cnc2c(F)c1Nc1ccc(Br)cc1Cl
Ans. 72.4

----------
measurement-protocol: Plasma pharmacokinetics after oral administration of the combination (noncompartmental)
run-parameters: plasma, cycle 1 Day 1; MK-8353 50 mg + selumetinib 25 mg oral BID; geometric mean (% geometric CV)
value-type: Cmax (nM)
Give just the numeric value; nM need not be written.

Qu. Please look at this compound and report its Cmax: O=C(NOCCO)c1cc2[nH]cnc2c(F)c1Nc1ccc(Br)cc1Cl
Ans. 43.7

----------
measurement-protocol: Plasma pharmacokinetics after oral administration of the combination (noncompartmental)
run-parameters: plasma, cycle 1 Day 1; MK-8353 100 mg + selumetinib 50 mg oral BID; geometric mean (% geometric CV)
value-type: Cmax (nM)
Give just the numeric value; nM need not be written.

Qu. Please look at this compound and report its Cmax: O=C(NOCCO)c1cc2[nH]cnc2c(F)c1Nc1ccc(Br)cc1Cl [desmethyl selumetinib]
Ans. 93.5

----------
measurement-protocol: clinical
run-parameters: human, in vivo, Observed median time of maximum plasma concentration, range over dose levels, cycle 1, all dose levels
value-type: tmax

Qu. Please look at this compound and report its tmax: CS[C@@]1(C(=O)Nc2ccc3[nH]nc(-c4ccc(OC(C)C)nc4)c3c2)CCN(CC(=O)N2CC=C(c3ccc(-c4ncn(C)n4)cc3)CC2)C1 [MK-8353]
Ans. 1.97 to 2.05 h
